test system: MOLT-4; experiment: Antiproliferative activity against human MOLT-4 cells assessed as reduction in cell viability measured after 48 hrs by MTS assay; assay type: functional, cell-based; details: MOLT-4, 48 h
This listing pairs compounds with measured pIC50.
A value of pIC50 is the negative decimal logarithm of a concentration given in moles per litre.

Cc1ncsc1-c1ccc([C@H](C)NC(=O)[C@@H]2C[C@@H](O)CN2C(=O)[C@@H](NC(=O)CCCCCCN2CCN(CC[C@H](CSc3ccccc3)Nc3ccc(S(=O)(=O)NC(=O)c4ccc(N5CCN(CC6=C(c7ccc(Cl)cc7)CCC(C)(C)C6)CC5)cc4)cc3S(=O)(=O)C(F)(F)F)CC2)C(C)(C)C)cc1	7.02

The record that follows has no pIC50 shown yet.
Provide MOLT-4 pIC50 reading for CC1(C)CCC(c2ccc(Cl)cc2)=C(CN2CCN(c3ccc(C(=O)NS(=O)(=O)c4ccc(N[C@H](CCN5CCN(CCOCCNc6cccc7c6C(=O)N([C@@H]6CCC(=O)NC6=O)C7=O)CC5)CSc5ccccc5)c(S(=O)(=O)C(F)(F)F)c4)cc3)CC2)C1 .
7.22

* * *

target: Protein cereblon/Bcl-2-like protein 1 (Homo sapiens, UniProt Q07817+Q96SW2); test: Protac activity at CRBN/BCL-XL in human MOLT-4 cells assessed as induction of BCL-XL degradation by measuring remaining BCL-XL level at 50 nM measured after 16 hrs by immunoblotting analysis relative to control; format: cell-based
Sequence (Q07817 whole entry, looked up): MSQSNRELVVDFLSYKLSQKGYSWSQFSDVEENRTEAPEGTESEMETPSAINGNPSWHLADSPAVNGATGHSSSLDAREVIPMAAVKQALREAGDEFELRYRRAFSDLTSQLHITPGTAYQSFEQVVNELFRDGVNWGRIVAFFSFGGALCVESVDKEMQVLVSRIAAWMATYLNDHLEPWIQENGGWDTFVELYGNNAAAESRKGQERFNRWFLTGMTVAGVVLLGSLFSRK
Sequence (Q96SW2 whole entry, looked up): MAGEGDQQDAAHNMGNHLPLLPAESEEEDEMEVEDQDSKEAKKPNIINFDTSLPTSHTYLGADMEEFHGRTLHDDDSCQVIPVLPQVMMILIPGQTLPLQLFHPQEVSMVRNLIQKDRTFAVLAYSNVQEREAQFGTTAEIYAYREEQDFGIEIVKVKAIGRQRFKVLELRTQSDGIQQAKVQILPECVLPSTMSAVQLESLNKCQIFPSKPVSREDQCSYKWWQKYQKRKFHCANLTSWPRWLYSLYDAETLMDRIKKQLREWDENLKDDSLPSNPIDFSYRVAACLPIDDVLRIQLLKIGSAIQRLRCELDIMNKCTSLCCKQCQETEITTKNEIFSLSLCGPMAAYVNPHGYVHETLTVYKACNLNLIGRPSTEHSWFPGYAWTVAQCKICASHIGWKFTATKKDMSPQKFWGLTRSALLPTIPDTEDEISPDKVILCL
result-type: Activity (%)

CN(CCOCCOCCNc1cccc2c1C(=O)N([C@@H]1CCC(=O)NC1=O)C2=O)CC[C@H](CSc1ccccc1)Nc1ccc(S(=O)(=O)NC(=O)c2ccc(N3CCN(CC4=C(c5ccc(Cl)cc5)CCC(C)(C)C4)CC3)cc2)cc1S(=O)(=O)C(F)(F)F	11

I = CC1(C)CCC(c2ccc(Cl)cc2)=C(CN2CCN(c3ccc(C(=O)NS(=O)(=O)c4ccc(N[C@H](CCN5CCN(CCOCCOCCOCCNc6cccc7c6C(=O)N([C@@H]6CCC(=O)NC6=O)C7=O)CC5)CSc5ccccc5)c(S(=O)(=O)C(F)(F)F)c4)cc3)CC2)C1
II = CC1(C)CCC(c2ccc(Cl)cc2)=C(CN2CCN(c3ccc(C(=O)NS(=O)(=O)c4ccc(N[C@H](CCN5CCN(CCCNc6cccc7c6C(=O)N([C@@H]6CCC(=O)NC6=O)C7=O)CC5)CSc5ccccc5)c(S(=O)(=O)C(F)(F)F)c4)cc3)CC2)C1 (mixture of isomers)
III = CC1(C)CCC(c2ccc(Cl)cc2)=C(CN2CCN(c3ccc(C(=O)NS(=O)(=O)c4ccc(N[C@H](CCN5CCN(CCOCCNc6cccc7c6C(=O)N([C@@H]6CCC(=O)NC6=O)C7=O)CC5)CSc5ccccc5)c(S(=O)(=O)C(F)(F)F)c4)cc3)CC2)C1
Endpoint returns the given molecules ordered by ascending Activity. # respond with the labels, arranged in the requested order
I, III, II
(I: 5%, III: 20%, II: 30%)

* * *

system: MOLT-4; assay: Antiproliferative activity against human MOLT-4 cells assessed as reduction in cell viability measured after 48 hrs by MTS assay; assay type: functional, cell-based; details: MOLT-4, 48 h
result-type: IC50 (nM)

Recorded IC50, per entry:
Cc1ncsc1-c1ccc([C@H](C)NC(=O)[C@@H]2C[C@@H](O)CN2C(=O)[C@@H](NC(=O)COCCOCCOCCOCCN(C)CC[C@H](CSc2ccccc2)Nc2ccc(S(=O)(=O)NC(=O)c3ccc(N4CCN(CC5=C(c6ccc(Cl)cc6)CCC(C)(C)C5)CC4)cc3)cc2S(=O)(=O)C(F)(F)F)C(C)(C)C)cc1	206
Cc1ncsc1-c1ccc([C@H](C)NC(=O)[C@@H]2C[C@@H](O)CN2C(=O)[C@@H](NC(=O)CCOCCN2CCN(CC[C@H](CSc3ccccc3)Nc3ccc(S(=O)(=O)NC(=O)c4ccc(N5CCN(CC6=C(c7ccc(Cl)cc7)CCC(C)(C)C6)CC5)cc4)cc3S(=O)(=O)C(F)(F)F)CC2)C(C)(C)C)cc1	151

I = CC1(C)CCC(c2ccc(Cl)cc2)=C(CN2CCN(c3ccc(C(=O)NS(=O)(=O)c4ccc(N[C@H](CCN5CCN(C(=S)NCCOCCOCCNc6cccc7c6C(=O)N([C@@H]6CCC(=O)NC6=O)C7=O)CC5)CSc5ccccc5)c(S(=O)(=O)C(F)(F)F)c4)cc3)CC2)C1 (racemic)
II = CN(CCOCCOCCOCCOCCNc1cccc2c1C(=O)N([C@@H]1CCC(=O)NC1=O)C2=O)CC[C@H](CSc1ccccc1)Nc1ccc(S(=O)(=O)NC(=O)c2ccc(N3CCN(CC4=C(c5ccc(Cl)cc5)CCC(C)(C)C4)CC3)cc2)cc1S(=O)(=O)C(F)(F)F
Of I and II , which shows the smaller IC50 value? Respond using the label that marks the chosen record.
II

* * *

target: von Hippel-Lindau disease tumor suppressor/Bcl-2-like protein 1 (Homo sapiens, UniProt Q07817+P40337); test: Protac activity at VHL/BCL-XL in human MOLT-4 cells assessed as induction of BCL-XL degradation by measuring remaining BCL-XL level at 100 nM measured after 16 hrs by immunoblotting analysis relative to control; type: cell-based
Sequence (P40337 whole entry, looked up): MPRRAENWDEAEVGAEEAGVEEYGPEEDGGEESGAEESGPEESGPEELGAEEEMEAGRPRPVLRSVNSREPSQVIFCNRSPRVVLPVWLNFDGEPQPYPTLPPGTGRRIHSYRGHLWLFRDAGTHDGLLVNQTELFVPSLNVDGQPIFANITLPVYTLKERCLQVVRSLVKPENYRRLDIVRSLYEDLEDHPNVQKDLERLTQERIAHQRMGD
Sequence (Q07817 whole entry, looked up): as the sequence (Q07817 whole entry, looked up) above
result-type: Activity (%)
Give the number; % is assumed, so skip it.

As a guide, the following entries are already answered.
Cc1ncsc1-c1ccc([C@H](C)NC(=O)[C@@H]2C[C@@H](O)CN2C(=O)[C@@H](NC(=O)CCC(=O)N2CCN(CC[C@H](CSc3ccccc3)Nc3ccc(S(=O)(=O)NC(=O)c4ccc(N5CCN(CC6=C(c7ccc(Cl)cc7)CCC(C)(C)C6)CC5)cc4)cc3S(=O)(=O)C(F)(F)F)CC2)C(C)(C)C)cc1	92
Cc1ncsc1-c1ccc([C@H](C)NC(=O)[C@@H]2C[C@@H](O)CN2C(=O)[C@@H](NC(=O)CCCCCCN(C)CC[C@H](CSc2ccccc2)Nc2ccc(S(=O)(=O)NC(=O)c3ccc(N4CCN(CC5=C(c6ccc(Cl)cc6)CCC(C)(C)C5)CC4)cc3)cc2S(=O)(=O)C(F)(F)F)C(C)(C)C)cc1	28
Cc1ncsc1-c1ccc([C@H](C)NC(=O)[C@@H]2C[C@@H](O)CN2C(=O)[C@@H](NC(=O)CCCCCCC(=O)N2CCN(CC[C@H](CSc3ccccc3)Nc3ccc(S(=O)(=O)NC(=O)c4ccc(N5CCN(CC6=C(c7ccc(Cl)cc7)CCC(C)(C)C6)CC5)cc4)cc3S(=O)(=O)C(F)(F)F)CC2)C(C)(C)C)cc1	32

Give a short answer stating reported Activity for Cc1ncsc1-c1ccc([C@H](C)NC(=O)[C@@H]2C[C@@H](O)CN2C(=O)[C@@H](NC(=O)CCCCCN(C)CC[C@H](CSc2ccccc2)Nc2ccc(S(=O)(=O)NC(=O)c3ccc(N4CCN(CC5=C(c6ccc(Cl)cc6)CCC(C)(C)C5)CC4)cc3)cc2S(=O)(=O)C(F)(F)F)C(C)(C)C)cc1 .
60

* * *

system: MOLT-4; test: Antiproliferative activity against human MOLT-4 cells assessed as reduction in cell viability measured after 48 hrs by MTS assay; format: functional, cell-based; details: MOLT-4, 48 h
result-type: IC50 (nM)

Cc1ncsc1-c1ccc([C@H](C)NC(=O)[C@@H]2C[C@@H](O)CN2C(=O)[C@@H](NC(=O)CCCCCCC(=O)N2CCN(CC[C@H](CSc3ccccc3)Nc3ccc(S(=O)(=O)NC(=O)c4ccc(N5CCN(CC6=C(c7ccc(Cl)cc7)CCC(C)(C)C6)CC5)cc4)cc3S(=O)(=O)C(F)(F)F)CC2)C(C)(C)C)cc1	108

1 = CN(CCCCCCNc1cccc2c1C(=O)N([C@@H]1CCC(=O)NC1=O)C2=O)CC[C@H](CSc1ccccc1)Nc1ccc(S(=O)(=O)NC(=O)c2ccc(N3CCN(CC4=C(c5ccc(Cl)cc5)CCC(C)(C)C4)CC3)cc2)cc1S(=O)(=O)C(F)(F)F
2 = CC1(C)CCC(c2ccc(Cl)cc2)=C(CN2CCN(c3ccc(C(=O)NS(=O)(=O)c4ccc(N[C@H](CCN5CCN(CCOCCOCCNc6cccc7c6C(=O)N([C@@H]6CCC(=O)NC6=O)C7=O)CC5)CSc5ccccc5)c(S(=O)(=O)C(F)(F)F)c4)cc3)CC2)C1
I'm curious whether 1 or 2 has the smaller IC50 number. Which is it? State the label of the item chosen.
2

* * *

# key: entry, value: Activity
target: von Hippel-Lindau disease tumor suppressor/Bcl-2-like protein 1 (Homo sapiens, UniProt Q07817+P40337); assay: Protac activity at VHL/BCL-XL in human MOLT-4 cells assessed as induction of BCL-XL degradation by measuring remaining BCL-XL level at 100 nM measured after 16 hrs by immunoblotting analysis relative to control; type: cell-based
Please state the figure in %; there is no need to write the unit.

Cc1ncsc1-c1ccc([C@H](C)NC(=O)[C@@H]2C[C@@H](O)CN2C(=O)[C@@H](NC(=O)CC(=O)N2CCN(CC[C@H](CSc3ccccc3)Nc3ccc(S(=O)(=O)NC(=O)c4ccc(N5CCN(CC6=C(c7ccc(Cl)cc7)CCC(C)(C)C6)CC5)cc4)cc3S(=O)(=O)C(F)(F)F)CC2)C(C)(C)C)cc1	96
Cc1ncsc1-c1ccc([C@H](C)NC(=O)[C@@H]2C[C@@H](O)CN2C(=O)[C@@H](NC(=O)CCCCN2CCN(CC[C@H](CSc3ccccc3)Nc3ccc(S(=O)(=O)NC(=O)c4ccc(N5CCN(CC6=C(c7ccc(Cl)cc7)CCC(C)(C)C6)CC5)cc4)cc3S(=O)(=O)C(F)(F)F)CC2)C(C)(C)C)cc1	61

Then there is this compound:
Answer with the recorded Activity for the compound listed here: Cc1ncsc1-c1ccc([C@H](C)NC(=O)[C@@H]2C[C@@H](O)CN2C(=O)[C@@H](NC(=O)CCCCCN2CCN(CC[C@H](CSc3ccccc3)Nc3ccc(S(=O)(=O)NC(=O)c4ccc(N5CCN(CC6=C(c7ccc(Cl)cc7)CCC(C)(C)C6)CC5)cc4)cc3S(=O)(=O)C(F)(F)F)CC2)C(C)(C)C)cc1
43
